Data credit: PubChem BioAssay (Tox21)

experiment: A CellTox Green Cytotoxicity Assay to monitor cytotoxicity in HepG2 cells - 32 hour (AID 1224883); conditions: CellTox Green fluorescence; series mostly up to 76.8 µM; note: nearly all actives have a fitted effect of over 50% in size
Inconclusive results are not listed. The source made the active and inactive calls. Calls come from the whole dose curve; as a rule, active = well fitted activation curve with a large enough effect in the repeat runs; inconclusive = weak or mixed curves; inactive = flat fitted curve, though single readings scatter.
Returns: one label drawn from active, inactive

Worked cases, answers included:
{"molecule": "CCCCc1c(C)nc(NCC)nc1OS(=O)(=O)N(C)C", "qualitative label": "inactive"}
{"molecule": "CC(Cl)Cl", "qualitative label": "inactive"}

# input for lookup
Request: # lookup: test call for CCBr
Result: inactive

---

Assay: A CellTox Green Cytotoxicity Assay to monitor cytotoxicity in HEK293 cells - 24 hour (AID 1224875); note: nearly all actives have a fitted effect of over 45% in size
Conditions: CellTox Green fluorescence; series mostly up to 76.8 µM
Source text: National Center for Advancing Translational Sciences [NCATS] NIH Chemical Genomics Center [NCGC] U.S. Environmental Protection Agency [EPA] National Institutes of Environmental Health Sciences [NIEHS] National Toxicology Program [NTP] Cell-based models are critical for drug discovery. […] Viable cells produce no appreciable increases in fluorescence. Therefore, the fluorescence signal produced by the binding interaction with dead cell DNA is proportional to cytotoxicity. […]
Results filed as inconclusive are left out. The source made the active and inactive calls. Calls come from the whole dose curve; as a rule, active = well fitted activation curve with a large enough effect in the repeat runs; inconclusive = weak or mixed curves; inactive = flat fitted curve, though single readings scatter.
Returns: one label drawn from active, inactive

Worked cases, answers included:
{"compound": "CCCCc1c(C)nc(NCC)nc1OS(=O)(=O)N(C)C", "qualitative label": "inactive"}
{"compound": "COCCOCCO", "qualitative label": "inactive"}
{"compound": "C=CCN1CC[C@]23c4c5ccc(O)c4O[C@H]2C(=O)CC[C@@]3(O)[C@H]1C5", "qualitative label": "inactive"}

Request: # lookup: test call for C=CCCl
Result: inactive

Request: # lookup: test call for N#CCC#N
Result: inactive

Request: # lookup: test call for O=[N+]([O-])c1cc(C(F)(F)F)cc([N+](=O)[O-])c1Cl
Result: inactive

Request: # lookup: test call for COc1cc(CC(C)N)cc2c1OCO2 (configuration not stated)
Result: inactive

---

test: qHTS assay to identify small molecule agonists of the constitutive androstane receptor (CAR) signaling pathway - cell viability counter screen (AID 1224836); details: HepG2-CYP2B6-hCAR viability, CellTiter-Fluor, 23 h, PK11195 added to every well; series mostly up to 92.4 µM; note: nearly all actives have a fitted effect of over 45% in size
Inconclusive results are not listed. Activity calls are given as the source filed them. The call rests on the fitted dose curve; in most records, active means well fitted cell-killing curve with a large enough effect in the repeat runs; inconclusive means weak or mixed curves, or effect the other way; inactive means flat fitted curve, though single readings scatter.
Returns: one label drawn from Y = active, N = inactive

{"molecule": "O=Cc1ccc(Cl)cc1Cl", "qualitative label": "N"}
{"molecule": "O=C(Nc1ccccc1)Nc1ccnc(Cl)c1", "qualitative label": "Y"}
{"molecule": "N#CCc1ccccc1", "qualitative label": "N"}
{"molecule": "O=Cc1ccc2c(c1)OCO2", "qualitative label": "N"}
{"molecule": "CC(=O)NC1CCSC1=O (centres undefined)", "qualitative label": "N"}

# input for lookup
Request: # lookup: test call for COP(=O)(OC)O/C(=C/Cl)c1cc(Cl)c(Cl)cc1Cl
Result: N

---

assay: qHTS assay to identify small molecule antagonists of the constitutive androstane receptor (CAR) signaling pathway - cell viability counter screen (AID 1224837); conditions: HepG2-CYP2B6-hCAR viability, CellTiter-Fluor, 23 h, co-treated with 50 nM CITCO; series mostly up to 92.4 µM; note: nearly all actives have a fitted effect of over 45% in size
Inconclusive results are not listed. Calls of active or inactive are those of the source. The call rests on the fitted dose curve; in most records, active means well fitted cell-killing curve with a large enough effect in the repeat runs; inconclusive means weak or mixed curves, or effect the other way; inactive means flat fitted curve, though single readings scatter.
Returns: one label drawn from active, inactive

Worked cases, answers included:
{"compound": "COC(=O)c1cncn1C(C)c1ccccc1 (stereo not drawn)", "qualitative label": "inactive"}
{"compound": "CN1C(=O)NC(=O)C(C)(C2=CCCCC2)C1=O (stereo not drawn)", "qualitative label": "inactive"}
{"compound": "C=CC(=O)OCCCCO", "qualitative label": "inactive"}

# input for lookup
Request: # lookup: test call for CC(=O)c1cc2c(cc1C)C(C)(C)C(C)CC2(C)C (stereo not drawn)
Result: inactive
